# assay.system: recombinant TFPI of the FXa restoring assay (human, mouse or rat; not specified for Tables 9 and 10)
# Sequence (P10646 29-304): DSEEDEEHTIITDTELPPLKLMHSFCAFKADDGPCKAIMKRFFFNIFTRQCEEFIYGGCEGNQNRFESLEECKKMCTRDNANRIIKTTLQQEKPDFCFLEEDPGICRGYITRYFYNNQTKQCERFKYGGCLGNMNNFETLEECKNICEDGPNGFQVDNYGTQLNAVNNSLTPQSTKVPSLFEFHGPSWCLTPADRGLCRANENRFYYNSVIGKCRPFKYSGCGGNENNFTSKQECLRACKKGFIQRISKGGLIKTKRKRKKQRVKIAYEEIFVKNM
# method.notes: cell-based or functional assay
quantity.kind: Improvement vs parental 2A8, FXa restoring assay (fold)
Value expressed in fold; do not type the unit.

# count of solved cases: 2
2A8-216 (HC S31V+I51D+S55R+K99V/LC Y48F+D91L+V96W) (Fab, V domains shown) VH: QVQLVESGGGLVQPGGSLRLSCAASGFTFRVYGMSWVRQAPGKGLEWVSSDRGSRSSTYYADSVKGRFTISRDNSKNTLYLQMNSLRAEDTAVYYCARVYRYWFDYWGQGTLVTVSS VL: DIELTQPPSVSVAPGQTARISCSGDNLRNYYAHWYQQKPGQAPVVVIFYDNNRPSGIPERFSGSNSGNTATLTISGTQAEDEADYYCQSWLDGVPWFGGGTKLTVLG | 7.3
2A8 wild-type Fab (Fab, V domains shown, Fab with c-myc (or HA, or none) and 6xHis tag at the C-terminus of the heavy chain; also called 2A8wt; 2A8 wt) VH: QVQLVESGGGLVQPGGSLRLSCAASGFTFRSYGMSWVRQAPGKGLEWVSSIRGSSSSTYYADSVKGRFTISRDNSKNTLYLQMNSLRAEDTAVYYCARKYRYWFDYWGQGTLVTVSS VL: DIELTQPPSVSVAPGQTARISCSGDNLRNYYAHWYQQKPGQAPVVVIYYDNNRPSGIPERFSGSNSGNTATLTISGTQAEDEADYYCQSWDDGVPVFGGGTKLTVLG | 1

Q: Please look at this binder and report its Improvement vs parental 2A8, FXa restoring assay: 2A8-200 (HC S35D+S55R+K99L/LC Y48F+N51V+D91W) (Fab, V domains shown) VH: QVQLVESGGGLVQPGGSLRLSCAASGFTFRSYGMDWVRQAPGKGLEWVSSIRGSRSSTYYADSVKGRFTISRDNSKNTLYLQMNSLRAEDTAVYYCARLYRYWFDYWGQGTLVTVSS VL: DIELTQPPSVSVAPGQTARISCSGDNLRNYYAHWYQQKPGQAPVVVIFYDVNRPSGIPERFSGSNSGNTATLTISGTQAEDEADYYCQSWWDGVPVFGGGTKLTVLG
Result: 9.7

Reference source: patent USRE47150
